Values from the supplement of paper PMC6555819

# Test system: RARa homodimer (NR concentration 270 nM)
# PROTOCOL NOTES: PBM binding z-score (relative to random genomic background probes); higher = stronger binding; sequences stand for … in GC…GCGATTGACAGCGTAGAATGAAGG
PARAMETER MEASURED: PBM binding z-score
Please give the numeric answer without any surrounding text.

In: Please give the measured PBM binding z-score for this sequence: `ATAAGTAGGTTAGCTGGGGTCATTCAGACTAGGC`
Out: 1.28

***
In: Please give the measured PBM binding z-score for this sequence: `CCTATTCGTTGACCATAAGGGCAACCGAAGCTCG`
Out: 1.43

In: Please give the measured PBM binding z-score for this sequence: `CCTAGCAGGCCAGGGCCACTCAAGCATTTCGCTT`
Out: -0.897

In: Please give the measured PBM binding z-score for this sequence: `CTCGAAAGGTCGGTTGAGGTGAGTTTACGGATAA`
Out: -0.143

In: Please give the measured PBM binding z-score for this sequence: `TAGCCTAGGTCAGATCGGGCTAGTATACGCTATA`
Out: -0.679

In: Please give the measured PBM binding z-score for this sequence: `ATAGACAGGTGATGAAGGTAACTCAGGCTATCAT`
Out: 0.641

In: Please give the measured PBM binding z-score for this sequence: `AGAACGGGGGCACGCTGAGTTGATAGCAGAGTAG`
Out: 0.451

In: Please give the measured PBM binding z-score for this sequence: `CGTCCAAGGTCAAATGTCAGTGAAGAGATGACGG`
Out: 0.72

In: Please give the measured PBM binding z-score for this sequence: `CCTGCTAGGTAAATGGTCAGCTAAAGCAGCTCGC`
Out: -0.6

In: Please give the measured PBM binding z-score for this sequence: `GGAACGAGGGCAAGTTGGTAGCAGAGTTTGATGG`
Out: -0.182

In: Please give the measured PBM binding z-score for this sequence: `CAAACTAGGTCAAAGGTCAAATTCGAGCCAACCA`
Out: 3.32

In: Please give the measured PBM binding z-score for this sequence: `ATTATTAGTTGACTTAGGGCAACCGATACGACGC`
Out: 2.43
